target: PTPN2 (Homo sapiens); construct: expressed in transfected cells; host or cells: 293T (293T.109 HiBiT-PTPN2 line; parental 293T WT from ATCC); test: HiBiT-Degradation 293T.109 PTPN2 (Nano-Glo HiBiT Lytic Assay); format: cell-based; details: 293T.109 (HiBiT-PTPN2) cells, 24.0 hours
Sequence (P17706 whole entry, species assumed): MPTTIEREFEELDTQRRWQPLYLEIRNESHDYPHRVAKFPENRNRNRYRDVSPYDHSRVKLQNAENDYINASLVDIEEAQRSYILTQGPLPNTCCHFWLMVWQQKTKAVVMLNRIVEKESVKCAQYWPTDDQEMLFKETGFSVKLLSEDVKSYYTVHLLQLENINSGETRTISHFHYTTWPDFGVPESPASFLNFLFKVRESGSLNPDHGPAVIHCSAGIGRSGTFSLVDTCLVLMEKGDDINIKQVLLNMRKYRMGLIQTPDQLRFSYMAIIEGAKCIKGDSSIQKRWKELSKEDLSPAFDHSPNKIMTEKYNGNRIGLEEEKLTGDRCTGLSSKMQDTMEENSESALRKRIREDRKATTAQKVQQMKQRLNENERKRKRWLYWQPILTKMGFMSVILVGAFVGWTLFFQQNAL
Endpoint Name: DC50

As a guide, the following entries are already answered.
Cn1nc(C2CCC(=O)NC2=O)c2ccc(N3CCC(CC(=O)Nc4ccc5c(F)c(N6CC(=O)NS6(=O)=O)c(O)cc5c4)CC3)cc21 (stereo not drawn) [Example 167] :: 50 to 200 nM
Cn1c(=O)n(C2CCC(=O)NC2=O)c2ccc(C3CCN(CC(=O)N4CC=C(c5ccc6cc(O)c(N7CC(=O)NS7(=O)=O)c(F)c6c5)CC4)CC3)cc21 (stereo not drawn) [Example 119] :: 10 to 50 nM

Please turn your attention to the following entry.
Problem: # query: DC50 | item Cn1nc(C2CCC(=O)NC2=O)c2ccc(C3CCN(CC(=O)Nc4ccc5c(F)c(N6CC(=O)NS6(=O)=O)c(O)cc5c4)CC3)cc21 (stereo not drawn) [Example 28] | system: PTPN2 (Homo sapiens)
Solution: < 10 nM
